Provenance of the data: the Immune Epitope Database (IEDB)

- target.under.test: HLA-B*15:01
- method.notes: IEDB peptide-MHC binding, purified MHC/direct/fluorescence; filed as Kd, often an IC50 or EC50 that approximates it; bounds were set here for any values at or beyond the usual limits of such assays
- condition.details: source organism: Marburg virus - Musoke, Kenya, 1980
observable: Kd

INPUT: Respond only with Kd recorded for YHLGGIEGL
OUTPUT: ≥ 20 µM

----------
- target.under.test: HLA-A*02:16
- method.notes: IEDB peptide-MHC binding, purified MHC/direct/fluorescence; filed as Kd, often an IC50 or EC50 that approximates it; bounds were set here for any values at or beyond the usual limits of such assays
- condition.details: source organism: Bacillus anthracis str. Sterne
observable: Kd

INPUT: Respond only with Kd recorded for KKNHWFILK
OUTPUT: ≥ 20 µM
